Collected zone of inhibition at 7500 µg/disc values appear next to each entry.
Test system: take-all fungus
experiment notes: agar overlay / PDA plate bioassay against take-all fungus
Type: cell-based, G. graminis var tritici
cond: Gaeumannomyces graminis; amount 7.5 mg; read-out: Clearance zone radii
experimental endpoint: zone of inhibition at 7500 µg/disc

>>> df
                                   compound              tgt               experimental_endpoint  result
0  O=C(O)[C@H](O)[C@@H](O)[C@H](O)[C@H](O)CO  take-all fungus  zone of inhibition at 7500 µg/disc    7 mm
1                           O=C(O)CCCC(=O)O  take-all fungus  zone of inhibition at 7500 µg/disc   15 mm
2  O=C[C@H](O)[C@@H](O)[C@H](O)[C@H](O)C(=O)O  take-all fungus  zone of inhibition at 7500 µg/disc    0 mm
3      O=C(O)CC(O)C(=O)O (stereo not shown)  take-all fungus  zone of inhibition at 7500 µg/disc   10 mm
4  O=C([O-])[C@H](O)[C@@H](O)[C@H](O)[C@H](O)CO.[Na+] [Sodium gluconate, reference compound]  take-all fungus  zone of inhibition at 7500 µg/disc    0 mm
5  O=C[C@H](O)[C@@H](O)[C@@H](O)[C@H](O)C(=O)O  take-all fungus  zone of inhibition at 7500 µg/disc    7 mm
6           O=C1O[C@H]([C@@H](O)CO)C(O)=C1O  take-all fungus  zone of inhibition at 7500 µg/disc    0 mm

----------
System: take-all fungus
experiment notes: agar overlay / PDA plate bioassay against take-all fungus
Format: cell-based, G. graminis var tritici
cond: Gaeumannomyces graminis; amount 25.0 mg; read-out: Clearance zone radii
Collected zone of inhibition at 25000 µg/disc values appear next to each entry.
experimental endpoint: zone of inhibition at 25000 µg/disc

In [3]: df
Out[3]:
                                   compound              tgt  result
0  O=C[C@H](O)[C@@H](O)[C@H](O)[C@H](O)C(=O)O [Glucuronic acid, glucuronic acid]  take-all fungus   20 mm
1  O=C[C@H](O)[C@@H](O)[C@@H](O)[C@H](O)C(=O)O [Galacturonic acid, galacturonic acid]  take-all fungus   25 mm
2  O=C(O)CCCC(=O)O [Glutaric acid, glutaric acid]  take-all fungus   25 mm
3  O=C(O)CC(O)C(=O)O (stereo not shown) [Malic acid, malic acid]  take-all fungus   25 mm
4  O=C1O[C@H]([C@@H](O)CO)C(O)=C1O [Ascorbic acid, ascorbic acid]  take-all fungus   20 mm
5  O=C([O-])[C@H](O)[C@@H](O)[C@H](O)[C@H](O)CO.[Na+] [Sodium gluconate, reference compound]  take-all fungus    0 mm
6  O=C(O)[C@H](O)[C@@H](O)[C@H](O)[C@H](O)CO [Gluconic acid, gluconic acid]  take-all fungus   20 mm

----------
experiment notes: media pH with purified acids (Table 2)
Format: physicochemical
cond: amount 25.0 mg
Collected media pH values appear next to each entry.
experimental endpoint: media pH

>>> print(df.to_string())
                                   compound  experimental_endpoint  numeric_result
0  O=C(O)CCCC(=O)O [Glutaric acid, glutaric acid]               media pH             2.0
1  O=C[C@H](O)[C@@H](O)[C@H](O)[C@H](O)C(=O)O [Glucuronic acid, glucuronic acid]               media pH             1.7
2  O=C(O)CC(O)C(=O)O (stereo not shown) [Malic acid, malic acid]               media pH             1.5
3  O=C[C@H](O)[C@@H](O)[C@@H](O)[C@H](O)C(=O)O [Galacturonic acid, galacturonic acid]               media pH             1.7
4  O=C1O[C@H]([C@@H](O)CO)C(O)=C1O [Ascorbic acid, ascorbic acid]               media pH             1.9
